Sourced from ChEMBL document CHEMBL3045228

Experiment: Inhibition of Acyl-coenzyme A:cholesterol acyltransferase (unknown origin) assessed as intracellular cholesterol esterification by cell based assay
Conditions: Homo sapiens; read-out: IC50
quantity-kind: IC50 (nM)

1. COc1cc(NC(NCCCCCCCCc2ccc(C(C)(C)C)cc2)=C2C(=O)OC(C)(C)OC2=O)cc(OC)c1OC    2800
2. Cc1cc(N(C)C)cc(C)c1NC(NCCCCCCCCc1ccc(C(C)(C)C)cc1)=C1C(=O)OC(C)(C)OC1=O    980
3. CCCCOc1ccc(NC(=C2C(=O)OC(C)(C)OC2=O)N(Cc2ccc(C(C)(C)C)cc2)C(C)CCCC(C)C)cc1 (stereo not drawn)    690
4. CCCCCc1ccc(CN(C(Nc2ccc(OC)cc2OC)=C2C(=O)OC(C)(C)OC2=O)C(C)CCCCC)cc1 (stereo not drawn)    360

1: COc1ccc(NC(=C2C(=O)OC(C)(C)OC2=O)N(Cc2ccc(CC(C)C)cc2)C(C)CCCC(C)C)c(OC)c1 (stereo not drawn)
2: CC(C)CCc1ccc(CN(C(Nc2ccc(N(C)C)cc2)=C2C(=O)OC(C)(C)OC2=O)C(CC(C)C)CC(C)C)cc1
3: COc1ccc(NC(NCCCCCCCCc2ccc(C(C)(C)C)cc2)=C2C(=O)OC(C)(C)OC2=O)c(OC)c1
4: COc1ccc(NC(=C2C(=O)OC(C)(C)OC2=O)N(Cc2ccc(C(C)(C)C)cc2)C(C)CCCC(C)C)c(OC)c1 (stereo not drawn)
Output the entries ranked by IC50 from maximum down to minimum. # list labels per requested ordering
2, 3, 1, 4
(2: 1300 nM, 3: 900 nM, 1: 370 nM, 4: 230 nM)

* * *

Test: Inhibition of Acyl-coenzyme A:cholesterol acyltransferase (unknown origin) assessed as intracellular cholesterol esterification by cell based assay
Conditions: Homo sapiens; read-out: IC50
quantity-kind: IC50 (µM)

Sample records with IC50:
1. COc1ccc(NC(NCCCCCCCCc2ccc(CCC(C)C)cc2)=C2C(=O)OC(C)(C)OC2=O)c(OC)c1    3
2. COc1ccc(NC(=C2C(=O)OC(C)(C)OC2=O)N(Cc2ccc(CC(C)(C)C)cc2)CC2CCCC2c2ccccc2)c(OC)c1 (stereo not drawn)    0.29
3. COc1ccc(NC(=C2C(=O)OC(C)(C)OC2=O)N(Cc2ccc(CC(C)C)cc2C)C(CO[SiH](C)C)CC(C)C)c(OC)c1 (stereo not drawn)    0.53
4. CCCCCc1ccc(CN(C(Nc2ccc(N(C)C)cc2C)=C2C(=O)OC(C)(C)OC2=O)C(C)CCCCC)cc1 (stereo not drawn)    0.68
5. COc1cc(OC)c(NC(NCCCCCCCCc2ccc(CC(C)(C)C)cc2)=C2C(=O)OC(C)(C)OC2=O)c(OC)c1    0.7

A: CCCCC(CC)N(Cc1ccc(CC(C)(C)C)cc1)C(Nc1ccc(OC)cc1OC)=C1C(=O)OC(C)(C)OC1=O (stereo not drawn)
B: CCCCCC(C)N(Cc1ccc(CC(C)(C)C)cc1)C(Nc1ccc(OC)cc1OC)=C1C(=O)OC(C)(C)OC1=O (stereo not drawn)
C: CC(C)(C)Cc1ccc(CCCCCCCNC(Nc2cc(C(C)(C)C)c(O)c(C(C)(C)C)c2)=C2C(=O)OC(C)(C)OC2=O)cc1
Output the entries ranked by IC50 from maximum down to minimum. # list labels per requested ordering
B, A, C
